# System: LXFL 529
# Test: NCI tumour cell line growth inhibition, 48 h
Activity calls are given as the source filed them. No stated cut-off is given here; in the data, active = GI50 up to about 1.1 µM and inactive = higher.
Readings of GI50 for the listed compounds

[
  {
    "Compound": "O=C(/C=C/c1c(O)ccc2ccccc12)c1ccc([N+](=O)[O-])cc1",
    "Recorded value": "16.6 µM (inactive)"
  },
  {
    "Compound": "Cc1cccc(NC2=NC(=O)C(CC(=O)Nc3cccc(C)c3C)S2)c1 (stereo unspecified)",
    "Recorded value": "> 100 µM (inactive)"
  },
  {
    "Compound": "Cc1ccccc1C(=O)Oc1ccc(OCc2ccccc2)cc1",
    "Recorded value": "87.9 µM (inactive)"
  },
  {
    "Compound": "Cc1ccccc1C(=O)N1CCN(C(=O)c2ccccc2C)CC1",
    "Recorded value": "> 100 µM (inactive)"
  }
]

**Query** # get_value(readout='GI50', item= COc1ccc(C(c2c(O)c3ccccc3n(C)c2=O)c2c(O)c3ccccc3n(C)c2=O)cc1 )
**Result** 46.1 µM (inactive)

**Query** # get_value(readout='GI50', item= COc1cc2ccc(/C(C)=N/OC(C)=O)cc2cc1OC )
**Result** 95.9 µM (inactive)

====

# Test system: OVCAR-5
# Test: NCI tumour cell line growth inhibition, 48 h
Activity calls are given as the source filed them. No stated cut-off is given here; in the data, active = GI50 up to about 1.1 µM and inactive = higher.
Readings of GI50 for the listed molecules

[
  {
    "Molecule": "C/C(=C\\CSCC(N)C(=O)O)CC/C=C(\\C)CNc1ccccc1 (stereo unspecified)",
    "System name": "OVCAR-5",
    "GI50": "> 100 µM (inactive)"
  }
]

**Query** # get_value(readout='GI50', item= C=CCC1C(=O)C(C(=O)OC)N2CCc3c([nH]c4ccccc34)C12 (stereo unspecified) )
**Result** > 100 µM (inactive)

**Query** # get_value(readout='GI50', item= C[N+](C)=c1nc(N2CCOCC2)ss1 )
**Result** > 100 µM (inactive)

**Query** # get_value(readout='GI50', item= O=c1c2ccccc2nc(N/N=C/c2ccccc2O)n1-c1ccccc1 )
**Result** 7.18 µM (inactive)

**Query** # get_value(readout='GI50', item= COc1ccc(C(c2c(O)c3ccccc3n(C)c2=O)c2c(O)c3ccccc3n(C)c2=O)cc1 )
**Result** 32.3 µM (inactive)

**Query** # get_value(readout='GI50', item= O=c1c2ccccc2c2c3c1cccc3c1cccc3c(=O)c4ccccc4c2c31 )
**Result** > 100 µM (inactive)

====

# Tested on: OVCAR-4
# Test: NCI tumour cell line growth inhibition, 48 h
Activity calls are given as the source filed them. No stated cut-off is given here; in the data, active = GI50 up to about 1.1 µM and inactive = higher.
Quantity name: GI50

[
  {
    "Compound": "COc1cc(S(=O)(=O)Nc2ccc(-c3csc(/N=C\\c4cccs4)n3)cc2)ccc1Cl",
    "Quantity name": "GI50",
    "Recorded value": "> 100 µM (inactive)"
  },
  {
    "Compound": "Nc1ncnc2c1nc(O)n2-c1ccccc1",
    "Quantity name": "GI50",
    "Recorded value": "> 100 µM (inactive)"
  },
  {
    "Compound": "COC(=O)C#Cc1ccc([N+](=O)[O-])cc1",
    "Quantity name": "GI50",
    "Recorded value": "1.7 µM (inactive)"
  },
  {
    "Compound": "COC(OC)(c1ccccc1)C(I)I",
    "Quantity name": "GI50",
    "Recorded value": "14.2 µM (inactive)"
  },
  {
    "Compound": "O=C1Oc2ccccc2C(=O)/C1=C/N1C(=O)N/C(=C\\c2ccccc2O)C1=O",
    "Quantity name": "GI50",
    "Recorded value": "55.3 µM (inactive)"
  }
]

**Query** # get_value(readout='GI50', item= C/C(=C\CSCC(N)C(=O)O)CC/C=C(\C)CNc1ccccc1 (configuration not stated) )
**Result** > 100 µM (inactive)

**Query** # get_value(readout='GI50', item= COC(=O)C1=C(C)NC(C)=C(C(=O)OC)C1c1nc2sccn2c1[N+](=O)[O-] )
**Result** > 100 µM (inactive)

**Query** # get_value(readout='GI50', item= O=S1(=O)c2cnccc2N=C(NCc2cccc3ccccc23)N1c1ccccc1 )
**Result** > 91.2 µM (inactive)

**Query** # get_value(readout='GI50', item= CN(C)CCNC(=O)C1COc2cc(-c3cc(=O)c4ccccc4o3)ccc2O1 (configuration not stated) )
**Result** 17.8 µM (inactive)

**Query** # get_value(readout='GI50', item= Cc1ccc(C2=Nn3c(nc4sc5c(c4c3=O)CCCC5)SC2)cc1 )
**Result** > 100 µM (inactive)

**Query** # get_value(readout='GI50', item= CC12Cc3cc4c(cc3C1(c1ccc([N+](=O)[O-])cc1)OCCO2)OCO4 (configuration not stated) )
**Result** > 100 µM (inactive)

====

# System: HCC 2998
# Test: NCI tumour cell line growth inhibition, 48 h
The source made the active and inactive calls. Cut-off read from the data, not from the text of the source: active = GI50 up to about 1.1 µM and inactive = higher.
Readings of GI50 for the listed compounds

Take a look at these entries with their results.
[
  {
    "Compound structure": "CC(C)(C)OC(=O)N(O)CCCn1cnc2c(NC3CC3)ncnc21",
    "System name": "HCC 2998",
    "Quantity name": "GI50",
    "Recorded value": "> 100 µM (inactive)"
  },
  {
    "Compound structure": "Cc1ccccc1C(=O)N1CCN(C(=O)c2ccccc2C)CC1",
    "System name": "HCC 2998",
    "Quantity name": "GI50",
    "Recorded value": "> 100 µM (inactive)"
  },
  {
    "Compound structure": "COc1cc(C(=O)C/C(CCCC(=O)Nc2ccccc2[N+](=O)[O-])=N/NC(=O)c2cc3ccccc3cc2O)ccc1O",
    "System name": "HCC 2998",
    "Quantity name": "GI50",
    "Recorded value": "28.9 µM (inactive)"
  },
  {
    "Compound structure": "CC#COS(=O)(=O)c1ccc(C)cc1",
    "System name": "HCC 2998",
    "Quantity name": "GI50",
    "Recorded value": "> 100 µM (inactive)"
  }
]

**Query** # get_value(readout='GI50', item= COc1ccc(C(c2c(O)c3ccccc3n(C)c2=O)c2c(O)c3ccccc3n(C)c2=O)cc1 )
**Result** 40.2 µM (inactive)

====

Readings of GI50 for the listed compounds
# Test system: UO-31
# Test: NCI tumour cell line growth inhibition, 48 h
Active and inactive are the calls of the source. Rule as the data show it: active = GI50 up to about 1.1 µM and inactive = higher.

[
  {
    "Compound": "CN1CC2=C(N=C(S)NC2c2ccc(Cl)cc2)/C(=C/c2ccc(Cl)cc2)C1 (centres undefined)",
    "System name": "UO-31",
    "GI50": "25.8 µM (inactive)"
  },
  {
    "Compound": "Cc1cccc(CNNC(=O)c2cc[n+]([BH2-]C#N)cc2)c1",
    "System name": "UO-31",
    "GI50": "48.1 µM (inactive)"
  },
  {
    "Compound": "COc1cc(C2SC(=N)Nc3c2c(C)nn3C(=O)Cc2ccccc2)ccc1O (centres undefined)",
    "System name": "UO-31",
    "GI50": "> 100 µM (inactive)"
  },
  {
    "Compound": "Cc1cccc(NC2=NC(=O)C(CC(=O)Nc3cccc(C)c3C)S2)c1 (centres undefined)",
    "System name": "UO-31",
    "GI50": "> 100 µM (inactive)"
  },
  {
    "Compound": "CCOC(=O)c1cccc(=O)c(C(=O)OCC)c1",
    "System name": "UO-31",
    "GI50": "29.4 µM (inactive)"
  },
  {
    "Compound": "CC(C)(C)OC(=O)NC(Cc1c[nH]cn1)C(=O)N1CCCC1C(N)=O (centres undefined)",
    "System name": "UO-31",
    "GI50": "> 100 µM (inactive)"
  }
]

**Query** # get_value(readout='GI50', item= O=C(/C=C\c1ccccc1)Oc1ccc(/C=C2\CCC/C(=C\c3ccc(OC(=O)/C=C\c4ccccc4)cc3)C2=O)cc1 )
**Result** > 100 µM (inactive)

**Query** # get_value(readout='GI50', item= Nc1nc(SCCNC(=O)CCc2ccc(O)cc2)nc2c1ncn2C1OC(CO)C(O)C1O (centres undefined) )
**Result** > 203 µM (inactive)

====

# System: ACHN
# Test: NCI tumour cell line growth inhibition, 48 h
The source made the active and inactive calls. No stated cut-off is given here; in the data, active = GI50 up to about 1.1 µM and inactive = higher.
Quantity name: GI50

[
  {
    "Compound": "CC(C)(C)OC(=O)N(O)CCCn1cnc2c(NC3CC3)ncnc21",
    "System name": "ACHN",
    "Quantity name": "GI50",
    "Recorded value": "> 100 µM (inactive)"
  },
  {
    "Compound": "Cc1c(C)c2c(c(N)c1C#N)C(=O)N(N)C2=O",
    "System name": "ACHN",
    "Quantity name": "GI50",
    "Recorded value": "> 100 µM (inactive)"
  },
  {
    "Compound": "CC(C)=CC(O)C/C(C)=C/CC/C(C)=C/CCC1(C)C(CCCO)/C(=C(/C)C=O)CCC1(C)O (stereo not given)",
    "System name": "ACHN",
    "Quantity name": "GI50",
    "Recorded value": "20.6 µM (inactive)"
  },
  {
    "Compound": "O=C1Oc2ccccc2C(=O)/C1=C/N1C(=O)N/C(=C\\c2ccccc2O)C1=O",
    "System name": "ACHN",
    "Quantity name": "GI50",
    "Recorded value": "47.6 µM (inactive)"
  }
]

API: the following record is the query input.
**Query** # get_value(readout='GI50', item= Cc1ncc(-c2nnnn2-c2ccccc2)c(C(=O)O)n1 )
**Result** > 100 µM (inactive)

Hello, the source for this data is ChEMBL document CHEMBL1201862, in case you need it.
